System: B16-F10 cells
test-summary: Inhibition of cell surface sialylation, lectin staining and flow cytometry, B16-F10 cells
Type: cell-based, Mouse
test-parameters: Mus musculus, 72 h, three days, SNA-I lectin binding, read-out: α2,6-Sia IC50
readout-label: IC50
State the result as a value with its unit after it.

Previously resolved entries follow.
molecule: COC(=O)C1(OC(C)=O)OC([C@H](OC(C)=O)[C@@H](COC(C)=O)OC(C)=O)[C@H](NC(=O)C(F)(F)F)C(OC(C)=O)C1F (stereo partly drawn) [SiaFTFA, reference compound]
target-of-assay: B16-F10 cells
IC50: 33.3 µM
//
molecule: C#CCOC(=O)N[C@@H]1C(OC(C)=O)C(F)C(OC(C)=O)(C(=O)OC)OC1[C@H](OC(C)=O)[C@@H](COC(C)=O)OC(C)=O (stereo partly drawn) [SiaFPoc]
target-of-assay: B16-F10 cells
IC50: 2.59 µM
//
molecule: COC(=O)C1(OC(C)=O)OC([C@H](OC(C)=O)[C@@H](COC(C)=O)OC(C)=O)[C@H](NC(=O)COC(C)=O)C(OC(C)=O)C1F (stereo partly drawn) [SiaFGc]
target-of-assay: B16-F10 cells
IC50: 11.8 µM
//
molecule: COC(=O)N[C@@H]1C(OC(C)=O)C(F)C(OC(C)=O)(C(=O)OC)OC1[C@H](OC(C)=O)[C@@H](COC(C)=O)OC(C)=O (stereo partly drawn) [SiaFMe]
target-of-assay: B16-F10 cells
IC50: 7.54 µM

stdin: Request the reported IC50 associated with COC(=O)C1(OC(C)=O)OC([C@H](OC(C)=O)[C@@H](COC(C)=O)OC(C)=O)[C@H](NC(=O)OC(C)(C)C)C(OC(C)=O)C1F (stereo partly drawn) [SiaFBoc]
stdout: 8.21 µM

stdin: Request the reported IC50 associated with CCOC(=O)N[C@@H]1C(OC(C)=O)C(F)C(OC(C)=O)(C(=O)OC)OC1[C@H](OC(C)=O)[C@@H](COC(C)=O)OC(C)=O (stereo partly drawn) [SiaFEt]
stdout: 3.87 µM

---

Listing of entries alongside the reported pIC50.
Tested on: HEK293 cells
test-summary: Inhibition of cell surface sialylation, lectin staining and flow cytometry, HEK293 cells
Assay type: cell-based, Human
test-parameters: Homo sapiens, 72 h, three days, SNA-I lectin binding, read-out: α2,6-Sia IC50
Bear in mind: pIC50 is minus log10 of a mol/L concentration; give just that figure.

Previously resolved entries follow.
compound: COC(=O)C1(OC(C)=O)OC([C@H](OC(C)=O)[C@@H](COC(C)=O)OC(C)=O)[C@H](NC(=O)OCC(C)C)C(OC(C)=O)C1F (stereo partly shown) [SiaFiBu]
pIC50: 5.02
//
compound: COC(=O)C1(OC(C)=O)OC([C@H](OC(C)=O)[C@@H](COC(C)=O)OC(C)=O)[C@H](NC(=O)CN=[N+]=[N-])C(OC(C)=O)C1F (stereo partly shown) [SiaFAz, reference compound]
pIC50: 4.33
//
compound: C=CCOC(=O)N[C@@H]1C(OC(C)=O)C(F)C(OC(C)=O)(C(=O)OC)OC1[C@H](OC(C)=O)[C@@H](COC(C)=O)OC(C)=O (stereo partly shown) [SiaFAII]
pIC50: 5.77

# evaluate next
stdin: Request the reported pIC50 associated with C#CCOC(=O)N[C@@H]1C(OC(C)=O)C(F)C(OC(C)=O)(C(=O)OC)OC1[C@H](OC(C)=O)[C@@H](COC(C)=O)OC(C)=O (stereo partly shown) [SiaFPoc]
stdout: 5.27

---

System: B16-F10 cells
test-summary: Inhibition of cell surface sialylation, lectin staining and flow cytometry, B16-F10 cells
Assay type: cell-based, Mouse
test-parameters: Mus musculus, 72 h, three days, SNA-I lectin binding, read-out: α2,6-Sia IC50
Listing of entries alongside the reported pIC50.
Bear in mind: pIC50 is minus log10 of a mol/L concentration; give just that figure.

compound: C=CCOC(=O)N[C@@H]1C(OC(C)=O)C(F)C(OC(C)=O)(C(=O)OC)OC1[C@H](OC(C)=O)[C@@H](COC(C)=O)OC(C)=O (stereo partly drawn)
target-of-assay: B16-F10 cells
pIC50: 5.54
//
compound: COC(=O)C1(OC(C)=O)OC([C@H](OC(C)=O)[C@@H](COC(C)=O)OC(C)=O)[C@H](NC(=O)CN=[N+]=[N-])C(OC(C)=O)C1F (stereo partly drawn) [SiaFAz, reference compound]
target-of-assay: B16-F10 cells
pIC50: 4.48
//
compound: CCCCOC(=O)N[C@@H]1C(OC(C)=O)C(F)C(OC(C)=O)(C(=O)OC)OC1[C@H](OC(C)=O)[C@@H](COC(C)=O)OC(C)=O (stereo partly drawn)
target-of-assay: B16-F10 cells
pIC50: 5.10
//
compound: COC(=O)C1(OC(C)=O)OC([C@H](OC(C)=O)[C@@H](COC(C)=O)OC(C)=O)[C@H](NC(=O)OCC(C)C)C(OC(C)=O)C1F (stereo partly drawn)
target-of-assay: B16-F10 cells
pIC50: 4.82
//
compound: C#CCCC(=O)N[C@@H]1C(OC(C)=O)C(F)C(OC(C)=O)(C(=O)OC)OC1[C@H](OC(C)=O)[C@@H](COC(C)=O)OC(C)=O (stereo partly drawn) [SiaFPen, reference compound]
target-of-assay: B16-F10 cells
pIC50: 4.28

# evaluate next
stdin: Request the reported pIC50 associated with COCCOC(=O)N[C@@H]1C(OC(C)=O)C(F)C(OC(C)=O)(C(=O)OC)OC1[C@H](OC(C)=O)[C@@H](COC(C)=O)OC(C)=O (stereo partly drawn)
stdout: 4.49

---

Tested on: EL4 cells
test-summary: Inhibition of cell surface sialylation, lectin staining and flow cytometry, EL4 cells
Type: cell-based, murine
test-parameters: three days, SNA-I lectin binding, read-out: α2,6-Sia IC50
Method: Mouse B16-F10 melanoma cells (ATCC CRL-6475) were cultured in Minimum Essential Medium (MEM) (Gibco, Invitrogen, Carlsbad, Calif.) containing 5% fetal bovine serum (FBS) (Greiner Bio-one, Frickenhausen, Germany), 1% MEM non-essential amino acids (Gibco), 0.15% sodium bicarbonate (Gibco), 1 mM sodium pyruvate (Gibco), 1.5% MEM vitamins (Gibco), 1% antibiotic-antimycotic solution (50 U/ml penicillin, 50 μg/ml streptomycin and 125 ng/ml amphotericin B) (Gibco). […]
readout-label: IC50

stdin: Request the reported IC50 associated with COC(=O)C1(OC(C)=O)O[C@@H]([C@H](OC(C)=O)[C@@H](COC(C)=O)OC(C)=O)[C@H](NC(C)=O)[C@@H](OC(C)=O)[C@H]1F (stereo partly shown) [SiaFAc, reference compound]
stdout: > 102 µM

---

Test system: 9464D cells
test-summary: Inhibition of cell surface sialylation, lectin staining and flow cytometry, 9464D cells
Assay type: cell-based, murine
test-parameters: three days, SNA-I lectin binding, read-out: α2,6-Sia IC50
pIC50: −log10 of the molar value.
readout-label: pIC50

stdin: Request the reported pIC50 associated with COC(=O)C1(OC(C)=O)O[C@@H]([C@H](OC(C)=O)[C@@H](COC(C)=O)OC(C)=O)[C@H](NC(C)=O)[C@@H](OC(C)=O)[C@H]1F (stereo partly shown) [SiaFAc, reference compound]
stdout: < 3.99
